Each recorded value in this set is attributed to ChEMBL document CHEMBL5033995.

Assay: Clearance in dog at 1 mg/kg, iv by LC-MS/MS analysis
Type: ADME, organism-based, Canis lupus familiaris
Conditions: in vivo
measured_parameter: clearance (mL/min/kg)

Example compounds with recorded clearance:
COc1cnc(C(=O)Nc2ccc(F)c([C@]34CN(c5ncc(F)cn5)C[C@H]3CSC(N)=N4)c2)cn1	5.2
NC1=N[C@@]2(c3cc(NC(=O)c4ccc(F)cn4)ccc3F)COC[C@H]2CS1	4.9
NC1=N[C@@]2(c3cc(NC(=O)c4ncc(F)cc4F)ccc3F)CN(c3ncc(F)cn3)C[C@H]2CS1	2.7

P: NC1=N[C@@]2(c3cc(NC(=O)c4ccc(F)cn4)ccc3F)CN(c3ncc(F)cn3)C[C@H]2CS1 (relative stereo)
Q: Cl.NC1=N[C@@]2(c3ccns3)CN(c3ncc(F)cn3)C[C@H]2CS1
Of the two listed items, which has the higher clearance? First: P Second: Q Which one? Tell me its label. Q

---

Assay: Permeability in MDCK cells
Format: ADME, cell-based, Canis lupus familiaris
Conditions: dog, read-out: permeability
measured_parameter: Papp (×10⁻⁶ cm/s)

C[C@@H]1C[C@H]1COC(C)(C)[C@@H]1C[C@H]1[C@]12CN(c3ncccn3)C[C@H]1CSC(N)=N2	36
NC1=N[C@@]2(c3cc(NC(=O)c4ncc(F)cc4F)ccc3F)CN(c3ncc(F)cn3)C[C@H]2CS1	30
C[C@@H]1C[C@H]1CNC(=O)[C@@H]1C[C@H]1[C@]12CN(c3ncccn3)C[C@H]1CSC(N)=N2	8
Cl.NC1=N[C@@]2(c3cnccn3)CN(c3ncc(F)cn3)C[C@H]2CS1	54
Cl.NC1=N[C@@]2(c3ccns3)CN(c3ncc(F)cn3)C[C@H]2CS1	59
COc1cnc(C(=O)Nc2ccc(F)c([C@]34CN(c5ncc(F)cn5)C[C@H]3CSC(N)=N4)c2)cn1	19
C[C@@]1(c2cc(-c3cncnc3)c(F)cc2F)CCSC(N)=N1	60
NC1=N[C@@]2(c3cc(NC(=O)c4ccc(F)cn4)ccc3F)COC[C@H]2CS1	55
Cl.Cl.NC1=N[C@@]2(c3cccs3)CN(c3ncccn3)C[C@H]2CS1	59

P: C[C@@H]1C[C@H]1CNC(=O)[C@@H]1C[C@H]1[C@]12COC[C@H]1CSC(N)=N2
Q: Cl.NC1=N[C@@]2(c3cccs3)CN(c3ncc(F)cn3)C[C@H]2CS1
R: NC1=N[C@@]2(c3cc(NC(=O)c4ccc(F)cn4)ccc3F)CN(c3ncc(F)cn3)C[C@H]2CS1 (relative stereo)
Number of molecules to sort: 3. Sort criterion: Papp, ascending. // rank by listing labels in the order requested P, R, Q

---

Assay: Volume of distribution at steady state in dog at 1 mg/kg, iv by LC-MS/MS analysis
Type: ADME, organism-based, Canis lupus familiaris
Conditions: in vivo, read-out: Vdss
measured_parameter: Vd (L/kg)

NC1=N[C@@]2(c3cc(NC(=O)c4ncc(F)cc4F)ccc3F)CN(c3ncc(F)cn3)C[C@H]2CS1	0.52
COc1cnc(C(=O)Nc2ccc(F)c([C@]34CN(c5ncc(F)cn5)C[C@H]3CSC(N)=N4)c2)cn1	0.78
Cl.NC1=N[C@@]2(c3ccns3)CN(c3ncc(F)cn3)C[C@H]2CS1	2.1

1: NC1=N[C@@]2(c3cc(NC(=O)c4ccc(F)cn4)ccc3F)COC[C@H]2CS1
2: NC1=N[C@@]2(c3cc(NC(=O)c4ccc(F)cn4)ccc3F)CN(c3ncc(F)cn3)C[C@H]2CS1 (relative stereo)
Smaller Vd value? Options are 1 and 2 Which one? Tell me its label. 2
(2: 1.1 L/kg, 1: 2.3 L/kg)
